Target: UniProtKB Q8NET8
Assay: Screening for TRPV3 antagonist using the 45Calcium uptake assay (inhibition of 2-APB induced cellular uptake of radioactive calcium)
Details: human TRPV3 expressing CHO cells; 2-APB 500 μM; class symbols
Protocol: The illustrative examples of the present invention are screened for TRPV3 activity according to a modified procedure described in Tóth, A., Kedei, N., Wang, Y. and Blumberg, P. M. Life Sciences (2003), 73, 487-498. […] The inhibition of TRPV3 receptor activation was followed as inhibition of 2-aminoethoxydiphenylborate (2-APB) induced cellular uptake of radioactive calcium. […] Radioactivity in the lysate was measured in Packardt Top count after addition of liquid scintillant. […]
# IC50 values compiled below

What reported IC50 corresponds to CCOCCOc1c(/C=C/c2nc3sccn3c(=O)c2-c2ccc(C(F)(F)F)cc2)cccc1OC [Example 32] on UniProtKB Q8NET8?
250 to 500 nM

###

Target: Human TRPV3 (Homo sapiens)
Construct: expressed in transfected cells; host or cells: CHO cells (G-418 selection)
Assay: Screening for TRPV3 antagonist using the 45Calcium uptake assay (inhibition of 2-APB induced cellular uptake of radioactive calcium)
Format: cell-based
Conditions: 10.0 μM test compound; human TRPV3 expressing CHO cells; 2-APB 500 μM; read-out: Percentage inhibition at 10.0 μM
readout_label: inhibition at 10 µM (%)

A: COc1cccc(/C=C/c2nc3sccn3c(=O)c2-c2ccc(C(C)(C)C)cc2)c1OCC1CC1
B: COc1cc(/C=C/c2nc3sccn3c(=O)c2-c2ccc(C(F)(F)F)cc2)ccc1OCC1CC1
C: COc1cccc(/C=C/c2nc3sccn3c(=O)c2-c2cccc(C(F)(F)F)c2)c1OCC1CC1
Going from lowest to highest recorded inhibition at 10 µM, rank the entries listed above. Would you mind listing the labels in the order asked for?
C, B, A
(C: 31.3%, B: 50.2%, A: 84.7%)

###

Molecular target: Human TRPV3 (Homo sapiens, UniProt Q8NET8)
Construct: expressed in transfected cells; host or cells: CHO cells (G-418 selection)
Experiment: Screening for TRPV3 antagonist using the 45Calcium uptake assay (inhibition of 2-APB induced cellular uptake of radioactive calcium)
Format: cell-based
Details: 1.0 μM test compound; human TRPV3 expressing CHO cells; 2-APB 500 μM; read-out: Percentage inhibition at 1.0 μM
readout_label: inhibition at 1 µM (%)

I: COc1cccc(/C=C/c2nc3sccn3c(=O)c2-c2ccc(OC(F)(F)F)cc2)c1OCC(C)C
II: COc1cccc(/C=C/c2nc3sccn3c(=O)c2-c2ccc(OC(F)(F)F)cc2)c1OC1CCCCC1
When their inhibition at 1 µM values are compared, which is larger, I or II ? Answer by stating the label of the chosen item.
I

a: COc1cccc(/C=C/c2nc3sccn3c(=O)c2-c2ccc(C(F)(F)F)cc2)c1OC1CCCC1
b: COc1cccc(/C=C/c2nc3sccn3c(=O)c2-c2ccc(OC(F)(F)F)cc2)c1OCC(C)(C)C
Please indicate which has the smaller reported inhibition at 1 µM: a , or b . Answer by stating the label of the chosen item.
a

###

Target: Human TRPV3 (Homo sapiens)
Construct: expressed in transfected cells; host or cells: CHO cells (G-418 selection)
Test: Screening for TRPV3 antagonist using the 45Calcium uptake assay (inhibition of 2-APB induced cellular uptake of radioactive calcium)
Type: cell-based
Conditions: 1.0 μM test compound; human TRPV3 expressing CHO cells; 2-APB 500 μM; read-out: Percentage inhibition at 1.0 μM
readout_label: inhibition at 1 µM (%)

[
  {
    "chemical_smiles": "COc1cccc(/C=C/c2nc3scc(C)n3c(=O)c2-c2ccc(OC(F)(F)F)cc2)c1OCC1CC1",
    "tested_on": "Human TRPV3 (Homo sapiens)",
    "inhibition at 1 µM / %": 61.9
  },
  {
    "chemical_smiles": "COc1cccc(/C=C/c2nc3sccn3c(=O)c2-c2ccc(OC(F)(F)F)cc2)c1OCC1CCC1",
    "tested_on": "Human TRPV3 (Homo sapiens)",
    "inhibition at 1 µM / %": 80.2
  },
  {
    "chemical_smiles": "COc1cccc(/C=C/c2nc3sc(C)cn3c(=O)c2-c2ccc(OC(F)(F)F)cc2)c1OCC1CC1",
    "tested_on": "Human TRPV3 (Homo sapiens)",
    "inhibition at 1 µM / %": 86.3
  },
  {
    "chemical_smiles": "COc1cccc(/C=C/c2nc3sccn3c(=O)c2-c2ccc(C#N)cc2)c1OCC1CCCCC1",
    "tested_on": "Human TRPV3 (Homo sapiens)",
    "inhibition at 1 µM / %": 74.6
  },
  {
    "chemical_smiles": "COc1cccc(/C=C/c2nc3sccn3c(=O)c2-c2ccc(C#N)cc2)c1OCCC(C)C",
    "tested_on": "Human TRPV3 (Homo sapiens)",
    "inhibition at 1 µM / %": 76.2
  }
]

###

Target: Human TRPV3 (Homo sapiens, UniProt Q8NET8)
Construct: expressed in transfected cells; host or cells: CHO cells (G-418 selection)
Assay: Screening for TRPV3 antagonist using the 45Calcium uptake assay (inhibition of 2-APB induced cellular uptake of radioactive calcium)
Format: cell-based
Conditions: 1.0 μM test compound; human TRPV3 expressing CHO cells; 2-APB 500 μM; read-out: Percentage inhibition at 1.0 μM
readout_label: inhibition at 1 µM (%)

P: CCCCOc1c(/C=C/c2nc3sccn3c(=O)c2-c2ccc(C#N)cc2)cccc1OC
Q: COc1cccc(/C=C/c2nc3n(C)c4ccccc4n3c(=O)c2-c2ccc(OC(F)(F)F)cc2)c1OCC1CC1
R: COCCOc1c(/C=C/c2nc3sccn3c(=O)c2-c2ccc(C#N)cc2)cccc1OC
S: COc1cccc(/C=C/c2nc3sccn3c(=O)c2-c2ccc(O)cc2)c1OCC1CC1
Going from lowest to highest recorded inhibition at 1 µM, rank the entries listed above. Would you mind listing the labels in the order asked for?
S, Q, R, P

1: COc1cccc(/C=C/c2nc3sccn3c(=O)c2-c2ccc(C(C)(C)C)cc2)c1OCC1CC1
2: COc1cccc(/C=C/c2nc3sccn3c(=O)c2-c2ccc(C(F)(F)F)cc2)c1OCC1CCC1
Please indicate which has the smaller reported inhibition at 1 µM: 1 , or 2 . Answer by stating the label of the chosen item.
2
(2: 43.1%, 1: 66.5%)

P: COc1cccc(/C=C/c2nc3sccn3c(=O)c2-c2ccc(OC(F)(F)F)cc2)c1OCC1CC1
Q: CCOc1ccc(-c2c(/C=C/c3cccc(OC)c3OCC3CC3)nc3sccn3c2=O)cc1
R: COc1cccc(/C=C/c2nc3sc(Cl)cn3c(=O)c2-c2ccc(OC(F)(F)F)cc2)c1OCC(C)(C)C
Rank by inhibition at 1 µM (largest to smallest). Would you mind listing the labels in the order asked for?
P, Q, R
(P: 92.8%, Q: 44%, R: 27.1%)

###

Molecular target: Human TRPV3 (Homo sapiens, UniProt Q8NET8)
Construct: expressed in transfected cells; host or cells: CHO cells (G-418 selection)
Assay: Screening for TRPV3 antagonist using the 45Calcium uptake assay (inhibition of 2-APB induced cellular uptake of radioactive calcium)
Type: cell-based
Settings: 10.0 μM test compound; human TRPV3 expressing CHO cells; 2-APB 500 μM; read-out: Percentage inhibition at 10.0 μM
readout_label: inhibition at 10 µM (%)

[
  {
    "compound": "COc1cccc(/C=C/c2nc3sccn3c(=O)c2-c2ccc(C#N)cc2)c1OCC(C)(C)C [Example 13]",
    "inhibition at 10 µM, %": 95.4
  },
  {
    "compound": "CCCCCOc1c(/C=C/c2nc3sccn3c(=O)c2-c2ccc(C#N)cc2)cccc1OC [Example 10]",
    "inhibition at 10 µM, %": 92.9
  },
  {
    "compound": "COc1cccc(/C=C/c2nc3sccn3c(=O)c2-c2ccc(C(F)(F)F)cc2)c1OC1CCCC1 [Example 35]",
    "inhibition at 10 µM, %": 68.5
  }
]

###

Biological target: Human TRPV3 (Homo sapiens)
Construct: expressed in transfected cells; host or cells: CHO cells (G-418 selection)
Sequence (Q8NET8 1-790): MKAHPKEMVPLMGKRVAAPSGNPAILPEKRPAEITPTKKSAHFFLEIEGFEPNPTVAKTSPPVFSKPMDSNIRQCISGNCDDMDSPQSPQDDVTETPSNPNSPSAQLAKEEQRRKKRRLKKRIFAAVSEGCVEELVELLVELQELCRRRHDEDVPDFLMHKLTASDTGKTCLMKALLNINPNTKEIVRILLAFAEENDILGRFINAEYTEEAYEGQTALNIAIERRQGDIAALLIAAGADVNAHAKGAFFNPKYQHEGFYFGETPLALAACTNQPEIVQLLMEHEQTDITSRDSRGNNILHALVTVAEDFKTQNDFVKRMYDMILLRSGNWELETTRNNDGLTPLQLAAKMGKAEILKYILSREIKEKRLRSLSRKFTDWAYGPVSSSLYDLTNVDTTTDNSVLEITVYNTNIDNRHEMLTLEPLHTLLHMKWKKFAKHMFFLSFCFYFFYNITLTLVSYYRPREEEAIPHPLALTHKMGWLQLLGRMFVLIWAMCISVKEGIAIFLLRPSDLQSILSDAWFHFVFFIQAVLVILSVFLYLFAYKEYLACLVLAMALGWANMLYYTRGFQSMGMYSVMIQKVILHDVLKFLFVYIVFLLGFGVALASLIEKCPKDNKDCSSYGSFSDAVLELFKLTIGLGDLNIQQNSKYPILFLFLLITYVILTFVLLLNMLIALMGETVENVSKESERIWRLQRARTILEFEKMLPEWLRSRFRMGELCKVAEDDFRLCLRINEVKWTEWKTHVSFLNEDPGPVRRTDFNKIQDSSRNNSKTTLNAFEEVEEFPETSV
Assay: Screening for TRPV3 antagonist using the 45Calcium uptake assay (inhibition of 2-APB induced cellular uptake of radioactive calcium)
Type: cell-based
Settings: 10.0 μM test compound; human TRPV3 expressing CHO cells; 2-APB 500 μM; read-out: Percentage inhibition at 10.0 μM
readout_label: inhibition at 10 µM (%)

The following compounds have reported results that may help.
[
  {
    "compound": "COc1cccc(/C=C/c2nc3sccn3c(=O)c2-c2ccc(OCC3CC3)cc2)c1OCC1CC1 [Example 47]",
    "inhibition at 10 µM [%]": 69.2
  },
  {
    "compound": "COCCOc1c(/C=C/c2nc3sccn3c(=O)c2-c2ccc(C#N)cc2)cccc1OC [Example 14]",
    "inhibition at 10 µM [%]": 88.1
  },
  {
    "compound": "COc1cccc(/C=C/c2nc3sccn3c(=O)c2-c2ccc(OC(F)(F)F)cc2)c1OCC(C)C [Example 51]",
    "inhibition at 10 µM [%]": 95.6
  },
  {
    "compound": "N#CCCCOc1cccc(/C=C/c2nc3sccn3c(=O)c2-c2ccc(OC(F)(F)F)cc2)c1OCC1CC1 [Example 65]",
    "inhibition at 10 µM [%]": 22
  },
  {
    "compound": "COc1cccc(/C=C/c2nc3sccn3c(=O)c2-c2ccc(N(C)C)cc2)c1OCC(C)C [Example 41]",
    "inhibition at 10 µM [%]": 84.5
  }
]

I: COc1cccc(/C=C/c2nc3sccn3c(=O)c2-c2ccc(OC(F)(F)F)cc2)c1OC1CCCCC1 [Example 72]
II: COc1cccc(/C=C/c2nc3sc(Cl)cn3c(=O)c2-c2ccc(OC(F)(F)F)cc2)c1OCC(C)(C)C [Example 78]
Please indicate which has the smaller reported inhibition at 10 µM: I , or II . Answer by stating the label of the chosen item.
II
(II: 47.5%, I: 82.1%)

A: CCOc1cccc(/C=C/c2nc3sccn3c(=O)c2-c2ccc(OC(F)(F)F)cc2)c1OCC1CC1 [Example 61]
B: COc1cccc(/C=C/c2nc3sccn3c(=O)c2-c2ccc(C#N)cc2)c1OCC(C)C [Example 12]
When their inhibition at 10 µM values are compared, which is larger, A or B ? Answer by stating the label of the chosen item.
B
